Tested on: KRAS PDC multicell spheroid viability;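 further: drug exposure lasted seven days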
Experiment: Anticancer human tumor 521955-158-R6-J3-PDC patient-derived pancreatic carcinoma cell line growth inhibition [KRAS2]; active means viability on the fitted dose curve at most 10% of control; inactive means the rest
Conditions: second compound 3.16 µM; first compound 0.1 µM
Result category, one only: active, inactive

CCN1CCN(Cc2ccc(Nc3ncc(F)c(-c4cc(F)c5nc(C)n(C(C)C)c5c4)n3)nc2)CC1 + CNCc1ccccc1-c1csc(C(C)Nc2nc(C)nc3cc(OC)c(OC)cc23)c1 : active
COc1cc2nccc(Oc3ccc(NC(=O)C4(C(=O)Nc5ccc(F)cc5)CC4)cc3)c2cc1OC + CNCc1ccccc1-c1csc(C(C)Nc2nc(C)nc3cc(OC)c(OC)cc23)c1 : active

Input: Outcome logged for Cn1nccc1Nc1nccc(-c2cc3c(s2)C(C)(C)N(CCN2CCOCC2)C3=O)n1 + CC1OCC2(CCN(c3cnc(Sc4ccnc(N)c4Cl)c(N)n3)CC2)C1N in this assay:
Output: inactive

Input: Recorded test outcome, item COC(=O)c1ccc2c(C(=Nc3ccc(N(C)C(=O)CN4CCN(C)CC4)cc3)c3ccccc3)c(O)[nH]c2c1 + CNCc1ccccc1-c1csc(C(C)Nc2nc(C)nc3cc(OC)c(OC)cc23)c1
Output: active

Input: Just curious, what result did CCN1CCN(Cc2ccc(Nc3ncc(F)c(-c4cc(F)c5nc(C)n(C(C)C)c5c4)n3)nc2)CC1 + COc1cc2nc(C)nc(NC(C)c3cc(N)cc(C(F)(F)F)c3)c2cc1OC1CCOC1 get here?
Output: inactive
